- Tested on: SNB-19 CNS
- Protocol description: NCI tumour cell line growth inhibition, 48 h; in the data active = GI50 below about 0.43 µM; inactive = the rest
Assign a class; possible classes are True (active), False (inactive)

Q: Any idea what this test logged for NC(Cc1c[nH]c2cc(F)ccc12)C(=O)O (stereo not drawn) ?
Result: False

Q: Any idea what this test logged for COc1ccc(C(=O)c2cc(C)c(OC)c(C)c2)c(OC)c1N(C(=O)CCl)C(=O)CCl ?
Result: True

Q: Any idea what this test logged for COc1ccc2c(c1)c(-c1ccc(-c3cn(C)c4ccc(OC)cc34)o1)cn2C ?
Result: False

Q: Any idea what this test logged for C[C@@]1(O)CCC[C@H]1n1c(=O)c(C(F)F)cc2cnc(NC3CCN(S(C)(=O)=O)CC3)nc21 ?
Result: False

Q: Any idea what this test logged for COc1cc2c(cc1OC)-c1ncc3cc(OC)c(OC)cc3c1C2 ?
Result: False

Q: Any idea what this test logged for COc1c(N2CCN(CN3C(=O)C(=O)c4ccccc43)C(C)C2)c(F)cc2c(=O)c(C(=O)O)cn(C3CC3)c12 (stereo not drawn) ?
Result: False

Q: Any idea what this test logged for COC(=O)CCCNC(=O)C(=O)c1c(O)c(O)c(C(C)C)c2cc(C)c(-c3c(C)cc4c(C(C)C)c(O)c(O)c(C(=O)C(=O)NCCCC(=O)OC)c4c3O)c(O)c12 ?
Result: True

Q: Any idea what this test logged for Cc1ccccc1C[P+](c1ccccc1)(c1ccccc1)c1ccccc1 ?
Result: False

Q: Any idea what this test logged for Clc1ccc(COC(Cn2ccnc2)c2ccc(Cl)cc2Cl)c(Cl)c1 (stereo not drawn) ?
Result: False

Q: Any idea what this test logged for COc1ccccc1N1CCN(CCCOc2ccc(C(=O)/C=C3/C(=O)Nc4ccccc43)cc2)CC1 ?
Result: False

Q: Any idea what this test logged for O=C(Nc1ccc(-n2ccc3c(NC(=O)c4ccccc4)nccc32)cc1)c1ccc(N2CCOCC2)c(C(F)(F)F)c1 ?
Result: False

Q: Any idea what this test logged for C=C1C(=O)O[C@H]2[C@H]1CC/C(Cn1cc(-c3ccsc3)nn1)=C\CC[C@@]1(C)O[C@@H]21 ?
Result: False

Q: Any idea what this test logged for COc1ccc(-c2cc(-c3ccc(Cl)cc3)nc(SCCCCCCC(=O)NO)n2)cc1 ?
Result: False

Q: Any idea what this test logged for CSC1SCC2C(=O)N(C)C(C(C)C)C(=O)OCC(NC(=O)c3cnc4ccccc4n3)C(=O)NC(C)C(=O)N(C)C1C(=O)N(C)C(C(C)C)C(=O)OCC(NC(=O)c1cnc3ccccc3n1)C(=O)NC(C)C(=O)N2C (stereo not drawn) ?
Result: True

Q: Any idea what this test logged for CCN(CC)c1ccc(/C=N/NC(=O)c2ccccc2Nc2ccnc(C(F)(F)F)c2)c(O)c1 ?
Result: True

Q: Any idea what this test logged for Cc1cc(C)c(O)c(CNCCCNCc2cc(C)cc(C)c2O)c1 ?
Result: False

Q: Any idea what this test logged for CCN(CC)CCOc1ccc(Cc2ccccc2)cc1 ?
Result: False

Q: Any idea what this test logged for CC(=Nc1ccccc1)C1=C(O)C(Cc2ccc(F)cc2)NC1=O (stereo not drawn) ?
Result: False

* * *

- Tested on: 786-0 renal
- Protocol description: NCI tumour cell line growth inhibition, 48 h
Could you please report measured TGI for the items listed next?

For record Cc1ccccc1C[P+](c1ccccc1)(c1ccccc1)c1ccccc1 the listed TGI is > 100 µM

For record Cc1ccc2c(c1)-c1oc(=O)c(-c3cc4ccccc4oc3=O)cc1C(O)O2 (stereo unspecified) the listed TGI is 39.7 µM

For record C(#C[C@@]12CCC[C@@H]1N(Cc1ccccc1)CO2)c1ccc2c(c1)OCO2 the listed TGI is > 100 µM

For record CNC(=O)OCC1=C(COC(=O)NC)C(C)N(c2ccccc2)C1 (stereo unspecified) the listed TGI is > 100 µM

For record CCCCSC1=N/C(=C\c2ccc(N(C)C)cc2)C(Cl)=N1 the listed TGI is > 100 µM

For record CC(CCC(=O)O)c1ccc(Br)cc1 (stereo unspecified) the listed TGI is > 100 µM

For record COc1cc(=O)oc(/C=C/C=C/C=C/C(C)=C\C2(C)OC(C)C(C)(O)C2O)c1C (stereo unspecified) the listed TGI is > 100 µM

For record CCOC(=O)C(=O)C(/C(=N/N(C)C)C(=O)Nc1ccc(C)cc1C)c1nc2ccccc2[nH]c1=O (stereo unspecified) the listed TGI is > 100 µM

For record Clc1nc(Nc2nc3ccccc3[nH]2)nc(Cl)c1-c1ccccc1 the listed TGI is 34.6 µM

For record Cn1c(O)c(C=Nc2ccc(Cl)cc2Cl)c(=O)n(C)c1=O the listed TGI is > 100 µM

For record OCCCCCNc1ccnc2cc(Cl)ccc12 the listed TGI is > 100 µM

// provenance: PubChem BioAssay (NCI)
